assay: Cytotoxicity against human HSF cells assessed as growth inhibition at 0.28 mM after 48 hrs by spectrophotometer using BrdU labeling; type: cell-based; details: read-out: GI
property name: inhibition at 48 h, 280 µM (%)
Give bare numbers, in %.

Please report the recorded inhibition at 48 h, 280 µM for CCSc1n[nH]c(/C=C\C(=O)Nc2ccc(Br)cc2)n1 . 75

----------
assay: Cytotoxicity against human HSF cells assessed as growth inhibition at 0.32 mM after 24 hrs by spectrophotometer using BrdU labeling; type: cell-based; details: read-out: GI
property name: inhibition at 24 h, 320 µM (%)
One number for each entry, in %.

Please report the recorded inhibition at 24 h, 320 µM for CCSc1n[nH]c(/C=C\C(=O)Nc2ccccc2Cl)n1 . 25
